experiment: in vitro; conditions: human, microsomes, pH 7.4
ASSAY_METRIC: microsomal CLint at 1 μM (µL/min/mg)
State the answer as a number, implicitly in µL/min/mg.

Please supply the value of reported microsomal CLint at 1 μM for the item O=C(NO)c1ncc(COc2ccc(F)cc2)c(CO)c1O [Compound 2]
1.17

====

assay: in vitro; settings: human, microsomes, pH 7.4
ASSAY_METRIC: half-life at 1 μM
Answer format: value, then unit.

Please supply the value of reported half-life at 1 μM for the item O=C(NO)c1ncc(COc2ccc(F)cc2)c(CO)c1O [Compound 2]
16.4 h

====

assay: Pharmacokinetics in adult Sprague-Dawley rats; format: in vivo; settings: male, Sprague-Dawley, whole blood; iv 5 mg/kg, rat blood, average n = 4
ASSAY_METRIC: AUC(0-t)
Answer format: value, then unit.

Please supply the value of reported AUC(0-t) for the item O=C(NO)c1ncc(COc2ccc(F)cc2)c(CO)c1O
31.8 µM·h
